- Test system: ES2
- experimental protocol: cells
- Set-up: MTT cell viability assay, absorbance at 575 nm, ES-2 cells
- assay conditions: Homo sapiens, ES-2, 48 h
What pIC50 was measured for each of the following?
One number for each entry, as −log10 of the molar value.

Incoming: pIC50 for CC(=O)O[C@@]12CO[C@@H]1C[C@H](O)[C@@]1(C)C(=O)[C@H](O)C3=C(C)[C@@H](OC(=O)[C@H](O)[C@@H](NC(=O)OC(C)(C)C)c4ccccc4)C[C@@](O)([C@@H](OC(=O)c4ccccc4)[C@H]21)C3(C)C ?
Outgoing: 4.30

Incoming: pIC50 for COc1ccc2cc3[n+](cc2c1OC)CCc1cc2c(cc1-3)OCO2 ?
Outgoing: 4.06

Incoming: pIC50 for O=C(/C=C/c1ccc(O)cc1)CC(=O)/C=C/c1ccc(O)cc1 ?
Outgoing: 4.34

Incoming: pIC50 for O=C(/C=C/c1ccc(O)cc1)c1ccc(O)cc1O ?
Outgoing: 4.29

List the reported pIC50 of each molecule below.
1. Cc1cc(O)c2c(c1)C(=O)c1cc(O)cc(O)c1C2=O
2. COc1ccc2cc1Oc1ccc(cc1)C[C@H]1c3cc(c(OC)cc3CCN1C)Oc1c(O)c(OC)cc3c1[C@H](C2)N(C)CC3

Outgoing:
4.30
4.60

---

- Test system: SKOV3
- experimental protocol: cells
- Design: MTT cell viability assay, absorbance at 575 nm, SK-OV-3 cells
- assay conditions: Homo sapiens, SK-OV-3, 48 h
What pIC50 was measured for each of the following?
Answers are plain numbers, as −log10 of the molar value.

Solved cases below.
Incoming: Param readout = pIC50; param system = SKOV3; param query = COc1ccc2cc1Oc1ccc(cc1)C[C@H]1c3cc(c(OC)cc3CCN1C)Oc1c(O)c(OC)cc3c1[C@H](C2)N(C)CC3 ; response: value
Outgoing: 4.93

Incoming: Param readout = pIC50; param system = SKOV3; param query = CC(=O)O[C@@]12CO[C@@H]1C[C@H](O)[C@@]1(C)C(=O)[C@H](O)C3=C(C)[C@@H](OC(=O)[C@H](O)[C@@H](NC(=O)OC(C)(C)C)c4ccccc4)C[C@@](O)([C@@H](OC(=O)c4ccccc4)[C@H]21)C3(C)C ; response: value
Outgoing: 4.67

Incoming: Param readout = pIC50; param system = SKOV3; param query = Cc1cc(O)c2c(c1)C(=O)c1cc(O)cc(O)c1C2=O ; response: value
Outgoing: 4.46

Further cases:
Incoming: Param readout = pIC50; param system = SKOV3; param query = COc1ccc2cc3[n+](cc2c1OC)CCc1cc2c(cc1-3)OCO2 ; response: value
Outgoing: 4.40

---

- System: SKOV3
- experimental protocol: cells
- Set-up: MTT cell viability assay, absorbance at 575 nm, SK-OV-3 cells
- assay conditions: Homo sapiens, SK-OV-3, 48 h
Where a name gives a salt, the structure may show the parent alone.
What pIC50 was measured for each of the following?
Answers are plain numbers, as −log10 of the molar value.

List the reported pIC50 of each compound below.
1. COc1cc2c(cc1OC)-c1cc3ccc(OC)c(OC)c3c[n+]1CC2 [Palmatine hydrochloride]
2. O=C(/C=C/c1ccc(O)cc1)c1ccc(O)cc1O
3. O=C(/C=C/c1ccc(O)cc1)CC(=O)/C=C/c1ccc(O)cc1

Outgoing:
[4.23, 4.59, 4.60]

---

- System: SKOV3
- experimental protocol: cells
- Parameters: MTT cell viability assay, absorbance at 575 nm, SK-OV-3 cells
- assay conditions: Homo sapiens, SK-OV-3, 48 h
value type: IC50

Solved cases below.
Incoming: IC50 for C/C=C(\C)C(=O)N[C@@H](c1ccccc1)[C@@H](O)C(=O)O[C@H]1C[C@@]2(O)[C@@H](OC(=O)c3ccccc3)[C@@H]3[C@]4(OC(C)=O)CO[C@@H]4C[C@H](O)[C@@]3(C)C(=O)[C@H](OC(C)=O)C(=C1C)C2(C)C [Cephalomannine] ?
Outgoing: 10.8 µM

Incoming: IC50 for O=c1cc(-c2ccc(O)c(-c3c(O)cc(O)c4c(=O)cc(-c5ccc(O)cc5)oc34)c2)oc2cc(O)cc(O)c12 [Amentoflavone] ?
Outgoing: 78.9 µM

--- query ---
Incoming: IC50 for CN1CCc2cc3c(cc2C(=O)Cc2cc4c(cc2C1)OCO4)OCO3 [Protopine] ?
Outgoing: 26.1 µM

---

- Test system: OVCAR3
- experimental protocol: cells
- Design: MTT cell viability assay, absorbance at 575 nm, OVCAR-3 cells
- assay conditions: Homo sapiens, OVCAR-3, 48 h
value type: IC50 (µM)
One number for each entry, in µM.

Incoming: IC50 for O=C(/C=C/c1ccc(O)cc1)c1ccc(O)cc1O ?
Outgoing: 25.8

List the reported IC50 of each compound below.
1. COc1ccc2cc3[n+](cc2c1OC)CCc1cc2c(cc1-3)OCO2
2. Cc1cc(O)c2c(c1)C(=O)c1cc(O)cc(O)c1C2=O
3. O=C(/C=C/c1ccc(O)cc1)CC(=O)/C=C/c1ccc(O)cc1
4. CC(=O)O[C@@]12CO[C@@H]1C[C@H](O)[C@@]1(C)C(=O)[C@H](O)C3=C(C)[C@@H](OC(=O)[C@H](O)[C@@H](NC(=O)OC(C)(C)C)c4ccccc4)C[C@@](O)([C@@H](OC(=O)c4ccccc4)[C@H]21)C3(C)C
5. C/C=C(\C)C(=O)N[C@@H](c1ccccc1)[C@@H](O)C(=O)O[C@H]1C[C@@]2(O)[C@@H](OC(=O)c3ccccc3)[C@@H]3[C@]4(OC(C)=O)CO[C@@H]4C[C@H](O)[C@@]3(C)C(=O)[C@H](OC(C)=O)C(=C1C)C2(C)C
6. COc1ccc2cc1Oc1ccc(cc1)C[C@H]1c3cc(c(OC)cc3CCN1C)Oc1c(O)c(OC)cc3c1[C@H](C2)N(C)CC3
7. CN1CCc2cc3c(cc2C(=O)Cc2cc4c(cc2C1)OCO4)OCO3

Outgoing:
1. 20.6
2. 22.6
3. 24.9
4. 40.6
5. 41.8
6. 9.66
7. 25.4
